species: Rattus norvegicus; assay: Open TG-GATES - Regimen: Single; format: toxicity, organism-based, Sprague-Dawley; design: regimen Single, gender Male, age 6 weeks; settings: in vivo, po, 0 mg/kg, 3 h, tissue Plasma, route gavage, dose level Control
Property: LDH; scope: individual compounds
Record the result as a number with its unit.

Data request: For the compound shown here, CN(CCOc1ccc(CC2SC(=O)NC2=O)cc1)c1ccccn1.O=C(O)/C=C\C(=O)O (centres undefined) [ROSIGLITAZONE MALEATE] , give the reported LDH.
Data returned: 82 IU/L

Data request: How about this compound: `CN(C/C=C/C#CC(C)(C)C)Cc1cccc2ccccc12`
Data returned: 154.4 IU/L

Data request: How about this compound: `O=C(O)c1ccccc1Nc1ccccc1`
Data returned: 75.4 IU/L

Data request: How about this compound: `CC(=O)[C@@]1(O)CC[C@H]2[C@@H]3C=C(Cl)C4=CC(=O)CC[C@]4(C)[C@H]3CC[C@@]21C`
Data returned: 163.6 IU/L

----------
species: Rattus norvegicus; assay: Open TG-GATES - Regimen: Daily Repeat; type: toxicity, organism-based, Sprague-Dawley; design: regimen Daily Repeat, gender Male, age 6 weeks; settings: in vivo, po, 0 mg/kg, 72 h, tissue Plasma, route gavage, dose level Control, time 3 day
Measurement label: TBIL (mg/dL)
Entry rule: numbers only, all in mg/dL.

Data request: For the molecule shown here, CC(S)C(=O)NCC(=O)O (stereo not drawn) , give the reported TBIL.
Data returned: 0.004

Data request: How about this molecule: NS(=O)(=O)c1cc(C(=O)O)c(NCc2ccco2)cc1Cl [FUROSEMIDE]
Data returned: 0.056

Data request: How about this molecule: `O=C(O)c1ccccc1Nc1ccccc1`
Data returned: 0.044

----------
organism: Rattus norvegicus; assay: Open TG-GATES - Regimen: Daily Repeat; type: toxicity, organism-based, Sprague-Dawley; design: regimen Daily Repeat, gender Male, age 6 weeks; settings: in vivo, po, 0 mg/kg, 72 h, tissue Blood, route gavage, dose level Control, time 3 day
Property: Ret; scope: individual compounds
Entry rule: numbers only, all in %.

Consider the worked cases shown below.
CCN(CC)C(=S)SSC(=S)N(CC)CC : 7
O=C(O)c1ccccc1Nc1ccccc1 : 6.5
CCCCNC(=O)NS(=O)(=O)c1ccc(C)cc1 [TOLBUTAMIDE] : 6.8
O=c1ccc2ccccc2o1 : 8
CC(=O)[C@@]1(O)CC[C@H]2[C@@H]3C=C(Cl)C4=CC(=O)CC[C@]4(C)[C@H]3CC[C@@]21C : 6.4

Data request: For the compound shown here, `CCO` , give the reported Ret.
Data returned: 6.7

Data request: How about this compound: CC(S)C(=O)NCC(=O)O (stereo not drawn)
Data returned: 6.8

Data request: How about this compound: CN(CCOc1ccc(CC2SC(=O)NC2=O)cc1)c1ccccn1.O=C(O)/C=C\C(=O)O (stereo not drawn) [ROSIGLITAZONE MALEATE]
Data returned: 6.6

Data request: How about this compound: `Nc1ccc(Cc2ccc(N)cc2)cc1`
Data returned: 6.4

Data request: How about this compound: `COc1ccc([C@@H]2Sc3ccccc3N(CCN(C)C)C(=O)[C@@H]2OC(C)=O)cc1`
Data returned: 8.9

Data request: How about this compound: `CN(C/C=C/C#CC(C)(C)C)Cc1cccc2ccccc12`
Data returned: 5.9

Data request: How about this compound: NS(=O)(=O)c1cc(C(=O)O)c(NCc2ccco2)cc1Cl [FUROSEMIDE]
Data returned: 6.5

Data request: How about this compound: `CCCCC1C(=O)N(c2ccccc2)N(c2ccccc2)C1=O`
Data returned: 7.3

----------
species on record: Rattus norvegicus; assay: Open TG-GATES - Regimen: Daily Repeat; type: toxicity, organism-based, Sprague-Dawley; set-up: regimen Daily Repeat, gender Male, age 6 weeks; details: in vivo, po, 0 mg/kg, 72 h, tissue Kidney, route gavage, dose level Control, time 3 day
Property: KIDNEY_TOTAL; scope: individual compounds

CN(C/C=C/C#CC(C)(C)C)Cc1cccc2ccccc12 : 2.2 g
O=C(O)c1ccccc1Nc1ccccc1 : 2 g
CC(S)C(=O)NCC(=O)O (stereo unspecified) : 2 g
CCCCNC(=O)NS(=O)(=O)c1ccc(C)cc1 [TOLBUTAMIDE] : 2 g
COc1ccc([C@@H]2Sc3ccccc3N(CCN(C)C)C(=O)[C@@H]2OC(C)=O)cc1 : 1.9 g
CCCCC1C(=O)N(c2ccccc2)N(c2ccccc2)C1=O : 2.2 g
CCO : 2 g
O=c1ccc2ccccc2o1 : 1.9 g
Nc1ccc(Cc2ccc(N)cc2)cc1 : 2 g
CC(=O)[C@@]1(O)CC[C@H]2[C@@H]3C=C(Cl)C4=CC(=O)CC[C@]4(C)[C@H]3CC[C@@]21C : 2 g

Data request: For the compound shown here, CN(CCOc1ccc(CC2SC(=O)NC2=O)cc1)c1ccccn1.O=C(O)/C=C\C(=O)O (stereo unspecified) [ROSIGLITAZONE MALEATE] , give the reported KIDNEY_TOTAL.
Data returned: 0.8 g

----------
Property: RBC; scope: individual compounds
organism: Rattus norvegicus; experiment: Open TG-GATES - Regimen: Single; assay type: toxicity, organism-based, Sprague-Dawley; design: regimen Single, gender Male, age 6 weeks; conditions: in vivo, po, 0 mg/kg, 24 h, tissue Blood, route gavage, dose level Control
Record the result as a number with its unit.

Consider the worked cases shown below.
COc1cc2ncnc(Nc3ccc(F)c(Cl)c3)c2cc1OCCCN1CCOCC1 : 619.8 x10_4/ul
COc1ccc([C@@H]2Sc3ccccc3N(CCN(C)C)C(=O)[C@@H]2OC(C)=O)cc1 : 610.2 x10_4/ul
O=C(O)c1ccccc1Nc1ccccc1 : 646.8 x10_4/ul
CCCCNC(=O)NS(=O)(=O)c1ccc(C)cc1 [TOLBUTAMIDE] : 624.8 x10_4/ul
CCN(CC)C(=S)SSC(=S)N(CC)CC : 613.8 x10_4/ul

Data request: For the compound shown here, `C=C[C@H]1C[N@@]2CC[C@H]1C[C@@H]2[C@@H](O)c1ccnc2ccc(OC)cc12` , give the reported RBC.
Data returned: 618.4 x10_4/ul

Data request: How about this compound: `O=c1ccc2ccccc2o1`
Data returned: 604.2 x10_4/ul

Data request: How about this compound: NS(=O)(=O)c1cc(C(=O)O)c(NCc2ccco2)cc1Cl [FUROSEMIDE]
Data returned: 613.6 x10_4/ul

Data request: How about this compound: `CN(C/C=C/C#CC(C)(C)C)Cc1cccc2ccccc12`
Data returned: 608.4 x10_4/ul

Data request: How about this compound: `CC(=O)[C@@]1(O)CC[C@H]2[C@@H]3C=C(Cl)C4=CC(=O)CC[C@]4(C)[C@H]3CC[C@@]21C`
Data returned: 649.2 x10_4/ul

Data request: How about this compound: CN(CCOc1ccc(CC2SC(=O)NC2=O)cc1)c1ccccn1.O=C(O)/C=C\C(=O)O (stereo not given) [ROSIGLITAZONE MALEATE]
Data returned: 593 x10_4/ul

Data request: How about this compound: CC(S)C(=O)NCC(=O)O (stereo not given)
Data returned: 612 x10_4/ul

Data request: How about this compound: `Nc1ccc(Cc2ccc(N)cc2)cc1`
Data returned: 616.8 x10_4/ul

Data request: How about this compound: `CN(C)CCCN1c2ccccc2Sc2ccc(Cl)cc21`
Data returned: 613.8 x10_4/ul

Data request: How about this compound: `CCO`
Data returned: 604 x10_4/ul

----------
species: Rattus norvegicus; experiment: Open TG-GATES - Regimen: Daily Repeat; type: toxicity, organism-based, Sprague-Dawley; design: regimen Daily Repeat, gender Male, age 6 weeks; conditions: in vivo, po, 0 mg/kg, […], tissue Blood, route gavage, dose level Control, time 28 day
Measurement label: APTT (s)
Entry rule: numbers only, all in s.

O=c1ccc2ccccc2o1 : 17.8
CCO : 17
CCCCC1C(=O)N(c2ccccc2)N(c2ccccc2)C1=O : 16

Data request: For the compound shown here, `O=C(O)c1ccccc1Nc1ccccc1` , give the reported APTT.
Data returned: 15.8

----------
species: Rattus norvegicus; assay: Open TG-GATES - Regimen: Daily Repeat; type: toxicity, organism-based, Sprague-Dawley; set-up: regimen Daily Repeat, gender Male, age 6 weeks; conditions: in vivo, po, 300 mg/kg, […], tissue Plasma, route gavage, dose level Middle, time 7 day
Measurement label: TC (mg/dL)
Entry rule: numbers only, all in mg/dL.

Data request: For the compound shown here, `CC(=O)[C@@]1(O)CC[C@H]2[C@@H]3C=C(Cl)C4=CC(=O)CC[C@]4(C)[C@H]3CC[C@@]21C` , give the reported TC.
Data returned: 91.2

Data request: How about this compound: CCCCNC(=O)NS(=O)(=O)c1ccc(C)cc1 [TOLBUTAMIDE]
Data returned: 76.4

Data request: How about this compound: `O=C(O)c1ccccc1Nc1ccccc1`
Data returned: 80.8

Data request: How about this compound: CC(S)C(=O)NCC(=O)O (centres undefined)
Data returned: 70.6

Reference source: ChEMBL document CHEMBL3885861
